Measured values drawn from patent US9771333B2 for this set.

- testTarget: human Tyro3 (Homo sapiens, UniProt Q06418)
- Construct: GST (N)
- Sequence (Q06418 455-890 limits assumed): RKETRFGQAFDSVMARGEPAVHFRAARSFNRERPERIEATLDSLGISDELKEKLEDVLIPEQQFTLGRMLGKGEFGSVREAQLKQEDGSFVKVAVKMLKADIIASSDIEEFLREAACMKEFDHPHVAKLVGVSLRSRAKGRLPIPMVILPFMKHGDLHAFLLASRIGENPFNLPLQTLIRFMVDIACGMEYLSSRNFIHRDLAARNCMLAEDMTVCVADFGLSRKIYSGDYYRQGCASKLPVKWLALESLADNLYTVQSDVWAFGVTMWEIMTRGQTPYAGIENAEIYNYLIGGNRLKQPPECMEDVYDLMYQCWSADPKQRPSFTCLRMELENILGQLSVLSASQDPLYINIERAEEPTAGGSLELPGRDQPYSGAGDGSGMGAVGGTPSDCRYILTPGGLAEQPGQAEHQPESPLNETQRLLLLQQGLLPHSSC
- protocolNotes: Kinase enzymatic activity assay (33P-radiolabeled phosphate transfer), Tyro3
- testSettings: recombinant human Tyro3 (455-end), poly(4:1 glu:tyr) substrate, 30 minutes
pIC50: −log10 of the molar value.
measuredEndpoint: pIC50

COCCOCCOc1cc(OC2CCOCC2)c2c(Oc3ccc(F)cc3Cl)ncnc2c1 [Example 2.4]: 5.00 to 6.00
Cc1cc(Nc2ncnc3cc(OCC4CCN(C)CC4)cc(OC4CCOCC4)c23)on1 [Example 2.40]: 5.00 to 6.00
CN1CCC(CCOc2cc(OC3CCOCC3)c3c(Nc4nc(C(F)(F)F)cs4)ncnc3c2)CC1 [Example 2.45]: < 5.00

Proceeding to the next compound to report its pIC50.
### Prompt // lookup pIC50 for FC(F)(F)c1nnc(Nc2ncnc3cc(OCCCN4CCOCC4)cc(OC4CCOCC4)c23)s1 [Example 2.22]
### Response < 5.00

###

- testTarget: human Mer (Homo sapiens, UniProt Q12866)
- Construct: GST (N)
- Sequence (Q12866 578-872): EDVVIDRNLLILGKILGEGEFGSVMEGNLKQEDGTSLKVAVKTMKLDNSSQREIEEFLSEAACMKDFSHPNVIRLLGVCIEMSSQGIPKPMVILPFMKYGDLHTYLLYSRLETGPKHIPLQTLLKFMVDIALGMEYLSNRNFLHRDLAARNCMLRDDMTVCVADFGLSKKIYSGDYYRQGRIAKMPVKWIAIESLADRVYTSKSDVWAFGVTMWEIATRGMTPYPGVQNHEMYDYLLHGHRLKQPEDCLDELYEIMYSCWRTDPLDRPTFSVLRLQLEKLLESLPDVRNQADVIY
- protocolNotes: Kinase enzymatic activity assay (33P-radiolabeled phosphate transfer), Mer
- testSettings: recombinant human Mer (578-872), poly(4:1 glu:tyr) substrate, 30 minutes
Catalogue of IC50 readings, one per entry.

The examples below pair each entry with its known result.
CN1CCC(COc2cc(OC3CCOCC3)c3c(Nc4nncs4)ncnc3c2)CC1: 500 to 1000 nM
OC[C@@H](O)COc1cc(OC2CCOCC2)c2c(Oc3ccc(F)cc3Cl)ncnc2c1: 500 to 1000 nM
CN1CCC(COc2cc(OC3CCOCC3)c3c(Oc4ccc(C(F)(F)F)cc4)ncnc3c2)CC1: 500 to 1000 nM

Lab note: next compound to report on.
### Prompt For "CN1CCC(COc2cc(OC3CCOCC3)c3c(Nc4ccon4)ncnc3c2)CC1" , what is its reported IC50?
### Response < 500 nM

###

# Lookup of reported pIC50 keyed by entry
- testTarget: human Axl (Homo sapiens)
- Construct: GST (N)
- protocolNotes: Kinase enzymatic activity assay (33P-radiolabeled phosphate transfer), Axl
- testSettings: recombinant human Axl (473-end), poly(4:1 glu:tyr) substrate, 30 minutes
pIC50: −log10 of the molar value.

OC[C@@H](O)COc1cc(OC2CCOCC2)c2c(Nc3nc(C(F)(F)F)cs3)ncnc2c1: 6.00 to 6.30

### Prompt Lab request: please report pIC50 under test system human Axl (Homo sapiens) for "CN(C)CCCN(C)c1cc(OC2CCOCC2)c2c(Nc3nc(C(F)(F)F)cs3)ncnc2c1"
### Response 6.00 to 6.30

### Prompt Missing value: pIC50, human Axl (Homo sapiens), entry "COc1cc(OCCCN2CCOCC2)cc2ncnc(Oc3cccc(CC(=O)NCc4ccccc4)c3)c12" . Fill in?
### Response < 5.00

### Prompt Please state recorded pIC50 (tested on human Axl (Homo sapiens)) of "CCN(CC)CCNc1cc(OC2CCOCC2)c2c(Nc3nc(C(F)(F)F)cs3)ncnc2c1"
### Response 5.00 to 6.00

###

- testTarget: human Mer (Homo sapiens, UniProt Q12866)
- Construct: GST (N)
- protocolNotes: Kinase enzymatic activity assay (33P-radiolabeled phosphate transfer), Mer
- testSettings: recombinant human Mer (578-872), poly(4:1 glu:tyr) substrate, 30 minutes
Consider the following compounds and their measured IC50 readings.

COc1cc(N2CCN(C)CC2)cc2ncnc(Nc3nc(C(F)(F)F)cs3)c12: > 10 µM
COCCOc1cc(OCCN2CCN(C)CC2)cc2ncnc(Sc3cc(Cl)cc(Cl)c3)c12: > 10 µM

### Prompt Any idea what its IC50 is? The compound is "COCCOc1cc(OCCN2CCN(C)CC2)cc2ncnc(Sc3cc(F)cc(F)c3)c12"
### Response > 10 µM

### Prompt Requested read-out: IC50. Entry: "Cc1cnc(Nc2ncnc3cc(OCC4CCN(C)CC4)cc(OC4CCOCC4)c23)s1"
### Response < 0.5 µM

###

- testTarget: human Mer (Homo sapiens, UniProt Q12866)
- Construct: GST (N)
- protocolNotes: Kinase enzymatic activity assay (33P-radiolabeled phosphate transfer), Mer
- testSettings: recombinant human Mer (578-872), poly(4:1 glu:tyr) substrate, 30 minutes
- Procedure: The identification of compounds of the invention as Tyro3, Axl or Mer inhibitors was readily accomplished using the recombinant human Tyro3, Axl and Mer proteins and employing the ^33P-radiolabeled phosphate transfer assay for which the procedure is known to someone skilled in the art or as described in Example 9. […] The enzymatic activity of all three kinases was determined as follows. […] The corrected CPM in each test well was determined by subtracting the average value of Blank well values. […]
Items are presented alongside their recorded IC50.

CN1CCC(COc2cc(OC3CCOCC3)c3c(Nc4ncn[nH]4)ncnc3c2)CC1 [Example 8]: > 10000 nM
CN1CCC(COc2cc(OC3CCOCC3)c3c(Nc4nccs4)ncnc3c2)CC1 [Example 2.39]: < 500 nM
CN(C)CCOCCOc1cc(OC2CCOCC2)c2c(Nc3nc(C(F)(F)F)cs3)ncnc2c1 [Example 2.56]: 1000 to 10000 nM
CN1CCC(CCOc2cc(OC3CCOCC3)c3c(Oc4ccc(F)cc4Cl)ncnc3c2)CC1 [Example 2]: < 500 nM
FC(F)(F)c1csc(Nc2ncnc3cc(OCCN4CCCCC4)cc(OC4CCOCC4)c23)n1 [Example 2.60]: < 500 nM
COc1cc(OCC2CCN(C)CC2)cc2ncnc(Nc3nc(C(F)(F)F)cs3)c12 [Example 2.13]: > 10000 nM

### Prompt Which measured IC50 value corresponds to CN1CCC(COc2cc(OC3CCOCC3)c3c(Nc4nnc(C(F)(F)F)s4)ncnc3c2)CC1 [Example 2.37] ?
### Response > 10000 nM

### Prompt Please report the recorded IC50 for COc1cc(OC2CCOCC2)c2c(Oc3ccc(F)cc3Cl)ncnc2c1 [Example 3.1] .
### Response 500 to 1000 nM

### Prompt Give its IC50 value. Item: Cc1nnc(Nc2ncnc3cc(OCCCN4CCOCC4)cc(OC4CCOCC4)c23)s1 [Example 2.20]
### Response 1000 to 10000 nM

### Prompt Which value of IC50 has been reported for CN1CCN(CCOc2cc(OC3CCOCC3)c3c(Oc4ccc(F)cc4Cl)ncnc3c2)CC1 [Example 3] in the records?
### Response 1000 to 10000 nM

###

- testTarget: human Mer (Homo sapiens)
- Construct: GST (N)
- protocolNotes: Kinase enzymatic activity assay (33P-radiolabeled phosphate transfer), Mer
- testSettings: recombinant human Mer (578-872), poly(4:1 glu:tyr) substrate, 30 minutes
pIC50: −log10 of the molar value.
measuredEndpoint: pIC50

### Prompt Give the measured pIC50 of "CN1CCN(CCOc2cc(OC3CCOCC3)c3c(Oc4cccc(C(=O)NCc5ccccc5)c4)ncnc3c2)CC1" .
### Response < 5.00

###

Entries and their IC50
- testTarget: human Axl (Homo sapiens, UniProt P30530)
- Construct: GST (N)
- Sequence (P30530 473-894 limits assumed): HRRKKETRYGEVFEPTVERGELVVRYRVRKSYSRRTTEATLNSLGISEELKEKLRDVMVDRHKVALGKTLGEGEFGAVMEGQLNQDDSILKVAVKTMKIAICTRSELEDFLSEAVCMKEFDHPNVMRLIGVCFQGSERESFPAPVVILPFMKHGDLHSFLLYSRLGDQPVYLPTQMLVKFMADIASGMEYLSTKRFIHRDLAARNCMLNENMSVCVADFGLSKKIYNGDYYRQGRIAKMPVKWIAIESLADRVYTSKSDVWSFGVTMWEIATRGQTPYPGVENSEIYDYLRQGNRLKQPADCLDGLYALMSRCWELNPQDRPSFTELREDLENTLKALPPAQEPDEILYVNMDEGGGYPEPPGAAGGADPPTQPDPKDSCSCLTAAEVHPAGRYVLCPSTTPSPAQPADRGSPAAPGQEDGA
- protocolNotes: Kinase enzymatic activity assay (33P-radiolabeled phosphate transfer), Axl
- testSettings: recombinant human Axl (473-end), poly(4:1 glu:tyr) substrate, 30 minutes

Example entries begin here.
CN1CCC(CCOc2cc(OC3CCOCC3)c3c(Nc4nc(C(F)(F)F)cs4)ncnc3c2)CC1: < 0.5 µM
CN(C)CCN(C)CCOc1cc(OC2CCOCC2)c2c(Oc3ccc(F)cc3Cl)ncnc2c1: 1 to 10 µM
Fc1ccc(Oc2ncnc3cc(OCCN4CCCCC4)cc(OC4CCOCC4)c23)c(Cl)c1: 1 to 10 µM
COCCOc1cc(OCCN2CCN(C)CC2)cc2ncnc(Sc3cc(Cl)cc(Cl)c3)c12: 1 to 10 µM
Cc1cc(Nc2ncnc3cc(OCCCN4CCOCC4)cc(OC4CCOCC4)c23)on1: 1 to 10 µM
FC(F)(F)c1csc(Nc2ncnc3cc(OCCCN4CCOCC4)cc(OC4CCOCC4)c23)n1: 0.5 to 1 µM

### Prompt Look at this molecule and give its reported IC50. "COCCOc1cc(OCCN2CCN(C)CC2)cc2ncnc(Sc3cc(F)cc(F)c3)c12"
### Response 1 to 10 µM

### Prompt Please look up its IC50: "Cc1nnc(Nc2ncnc3cc(OCCCN4CCOCC4)cc(OC4CCOCC4)c23)s1"
### Response 1 to 10 µM
